Molecular target: T. brucei TryR (trypanothione reductase; TyrR) (Trypanosoma brucei)
Sequence (P39051 whole entry): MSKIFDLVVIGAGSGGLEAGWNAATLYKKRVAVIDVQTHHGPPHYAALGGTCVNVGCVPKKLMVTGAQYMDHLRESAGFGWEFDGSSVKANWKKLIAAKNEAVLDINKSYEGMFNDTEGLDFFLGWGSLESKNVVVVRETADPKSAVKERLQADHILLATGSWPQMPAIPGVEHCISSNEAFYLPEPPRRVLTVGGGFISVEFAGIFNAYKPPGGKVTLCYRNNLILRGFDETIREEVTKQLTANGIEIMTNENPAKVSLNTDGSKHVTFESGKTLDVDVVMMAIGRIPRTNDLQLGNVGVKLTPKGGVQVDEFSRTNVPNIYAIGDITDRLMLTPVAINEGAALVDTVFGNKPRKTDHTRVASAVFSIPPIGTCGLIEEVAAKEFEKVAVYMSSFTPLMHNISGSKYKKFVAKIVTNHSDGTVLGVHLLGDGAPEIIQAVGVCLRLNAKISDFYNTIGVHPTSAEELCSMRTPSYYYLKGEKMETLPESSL
Experiment: DTNB-coupled TryR assay, absorbance, 384-well
Assay type: biochemical
pIC50: −log10 of the molar value.
Measured Property: pIC50

Molecule Smiles | Target System | Result
c1ccc(-c2ccc(C3(N4CCCCC4)CCCCC3)cc2)cc1 | T. brucei TryR (trypanothione reductase; TyrR) (Trypanosoma brucei) | < 4.00
c1ccc2c(C3(N4CCCCC4)CCCCC3)cccc2c1 | T. brucei TryR (trypanothione reductase; TyrR) (Trypanosoma brucei) | < 4.00
O=C(c1cc2ccccc2s1)C1(N2CCCCC2)CCCCC1 | T. brucei TryR (trypanothione reductase; TyrR) (Trypanosoma brucei) | < 4.00
Brc1ccc2sc(C3(N4CCCCC4)CCCCC3)cc2c1 | T. brucei TryR (trypanothione reductase; TyrR) (Trypanosoma brucei) | < 4.00
